- tested_target: T1, recombinant biotinylated CD137 protein (Fc-fusion protein, R&D Systems 838-4B) (human, UniProt Q07011 24-186, biotinylated, sites not stated)
- T1 construct: Bought Fc fusion; also called CD137-Fc
- procedure_summary: ELISA, lysate on biotinylated CD137-Fc
reported_endpoint: ELISA CD137 (RLU)

INSERT INTO results (binder, reported_endpoint, reading) VALUES
  ('ISOP193AR9P1G8 (designed binder, not shown: small tags and cut ends) LPAPKNLVVSRVTEDSARLSWHATFGDPFDSFLIQYQESEKVGEAIVLTVPGSERSYDLTGLKPGTEYTVSIYGVGRHYTVYDSNPLSAIFTT', 'ELISA CD137 (RLU)', '4.26e+06'),
  ('ISOP193HR9P1E2 (designed binder, not shown: small tags and cut ends) LPAPKNLVVSRVTEDSARLSWTAPDAAFDSFEIYYLEWCSGGEAIVLTVPGSERSYDLTGLKPGTEYLVTIYGVKGCAASDPLSAIFTT', 'ELISA CD137 (RLU)', '9.02e+06'),
  ('ISOP193HR9P1A11 (designed binder, not shown: small tags and cut ends) LPAPKNLVVSRVTEDSARLSWTAPDAAFDSFEIYYLEGGRGEAIVLTVPGSERSYDLTGLKPGTEYLVTIYGVKCGWASNPLSAIFTT', 'ELISA CD137 (RLU)', '1.66e+07');

a = ISOP193ER9P1H3 (designed binder, not shown: small tags and cut ends) LPAPKNLVVSRVTEDSARLSWTAPDAAFDSFEIYYLEVRNRGEAIVLTVPGSERSYDLTGLKPGTEYHVGIAGVKGGFHSFPLSAIFTT
b = ISOP193BR9P1G3 (designed binder, not shown: small tags and cut ends) LPAPKNLVVSRVTEDSARLSWAQSNQQFDSFLIQYQESEKVGEAIVLTVPGSERSYDLTGLKPGTEYTVSIYGVVWQNWVAYNSNPLSAIFTT
[Q] # argmax over ELISA CD137 (RLU) for candidates a and b Identify your pick by its label.
[A] a
(a: 1.05e+07 RLU, b: 4.71e+06 RLU)
